Provenance of the data: patent US12703750

Readings of kon for the listed binders
# Experimental target: T1, Human IL13Rα2 (human, UniProt Q14627 27-343, limits assumed)
# T1 construct: also called human recombinant IL13Rα2; Human IL13Ra2
# T1 sequence (looked up): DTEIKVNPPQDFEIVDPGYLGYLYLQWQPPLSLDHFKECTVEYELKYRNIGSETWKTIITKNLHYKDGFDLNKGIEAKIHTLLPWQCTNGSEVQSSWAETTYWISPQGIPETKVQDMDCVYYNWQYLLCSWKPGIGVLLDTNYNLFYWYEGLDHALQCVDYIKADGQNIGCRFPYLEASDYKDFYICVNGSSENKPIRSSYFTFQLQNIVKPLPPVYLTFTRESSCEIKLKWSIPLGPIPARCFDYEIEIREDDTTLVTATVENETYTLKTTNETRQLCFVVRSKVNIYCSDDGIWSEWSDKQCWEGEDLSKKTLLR
# Assay explanation: SPR Biacore 8K affinity ranking, antibody supernatant Fc-captured, 100 nM IL13Rα2 analyte
Kindly provide the numeric value in M⁻¹ s⁻¹ only, without the unit symbol.

Known kon results, listed for orientation:
Binder	kon [M⁻¹ s⁻¹]
Humanized antibody VH2 + VL4 (antibody, human IgG1, kappa, V domains shown) VH: QVQLVQSGAEVKKPGASVKVSCKASGYTFSNYLMNWVRQAPGQRLEWMGRIDPYDGDIDYNQNFKDRVTITRDTSASTAYMELSSLRSEDTAVYYCARGYGTAYGVDYWGQGTLVTVSS VL: EIVMTQSPATLSVSPGERATLSCRASESVDNYGISFMNWYQQKPGQAPRLLIYAASRQGSGIPARFSGSGSGTEFTLTISSLQSEDFAVYYCQQSKEVPWTFGGGTKLEIKR	555000
Humanized antibody VH2 + VL3 (antibody, human IgG1, kappa, V domains shown, also called U3621EI120 VH2+VL3) VH: QVQLVQSGAEVKKPGASVKVSCKASGYTFSNYLMNWVRQAPGQRLEWMGRIDPYDGDIDYNQNFKDRVTITRDTSASTAYMELSSLRSEDTAVYYCARGYGTAYGVDYWGQGTLVTVSS VL: EIVLTQSPATLSLSPGERATLSCRASESVDNYGISFMNWYQQKPGQAPRLLIYAASRQGSGIPARFSGSGSGTDFTLTISSLEPEDFAVYYCQQSKEVPWTFGGGTKLEIKR	649000
Humanized antibody VH4 + VL1 (antibody, human IgG1, kappa, V domains shown) VH: QVQLVQSGAEVKKPGASVKVSCKASGYTFSNYLMNWVRQATGQGLEWMGRIDPYDGDIDYNQNFKDRVTITRNTSISTAYMELSSLRSEDTAVYYCARGYGTAYGVDYWGQGTLVTVSS VL: DIVMTQSPDSLAVSLGERATINCRASESVDNYGISFMNWYQQKPGQPPKLLIYAASRQGSGVPDRFSGSGSGTDFTLTISSLQAEDVAVYYCQQSKEVPWTFGGGTKLEIKR	583000
Humanized antibody VH2 + VL2 (antibody, human IgG1, kappa, V domains shown) VH: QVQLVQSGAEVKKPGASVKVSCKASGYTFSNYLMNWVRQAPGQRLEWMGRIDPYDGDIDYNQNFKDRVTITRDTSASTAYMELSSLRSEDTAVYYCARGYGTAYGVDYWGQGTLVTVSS VL: DIQMTQSPSSLSASVGDRVTITCRASESVDNYGISFMNWYQQKPGKAPKLLIYAASRQGSGVPSRFSGSGSGTDFTLTISSLQPEDFATYYCQQSKEVPWTFGGGTKLEIKR	648000
Humanized antibody VH3 + VL3 (antibody, human IgG1, kappa, V domains shown) VH: QVQLVQSGAEVKKPGASVKVSCKASGYTFSNYLMNWVRQAPGQGLEWMGRIDPYDGDIDYNQNFKDRVTMTRDTSTSTVYMELSSLRSEDTAVYYCARGYGTAYGVDYWGQGTLVTVSS VL: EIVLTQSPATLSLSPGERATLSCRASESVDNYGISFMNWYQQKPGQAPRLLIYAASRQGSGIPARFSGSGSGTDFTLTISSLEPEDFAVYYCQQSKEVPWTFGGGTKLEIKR	620000

Entry Humanized antibody VH4 + VL4 (antibody, human IgG1, kappa, V domains shown) VH: QVQLVQSGAEVKKPGASVKVSCKASGYTFSNYLMNWVRQATGQGLEWMGRIDPYDGDIDYNQNFKDRVTITRNTSISTAYMELSSLRSEDTAVYYCARGYGTAYGVDYWGQGTLVTVSS VL: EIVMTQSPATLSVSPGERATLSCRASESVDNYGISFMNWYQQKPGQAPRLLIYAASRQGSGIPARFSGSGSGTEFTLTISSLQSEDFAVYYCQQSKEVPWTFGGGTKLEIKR needs its kon filled in; supply it.
844000

Entry Humanized antibody VH3 + VL2 (antibody, human IgG1, kappa, V domains shown) VH: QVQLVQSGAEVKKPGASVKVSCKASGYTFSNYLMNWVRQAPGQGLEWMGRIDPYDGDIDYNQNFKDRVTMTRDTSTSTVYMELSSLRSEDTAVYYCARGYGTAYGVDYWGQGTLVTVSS VL: DIQMTQSPSSLSASVGDRVTITCRASESVDNYGISFMNWYQQKPGKAPKLLIYAASRQGSGVPSRFSGSGSGTDFTLTISSLQPEDFATYYCQQSKEVPWTFGGGTKLEIKR needs its kon filled in; supply it.
852000

Entry Humanized antibody VH4 + VL2 (antibody, human IgG1, kappa, V domains shown) VH: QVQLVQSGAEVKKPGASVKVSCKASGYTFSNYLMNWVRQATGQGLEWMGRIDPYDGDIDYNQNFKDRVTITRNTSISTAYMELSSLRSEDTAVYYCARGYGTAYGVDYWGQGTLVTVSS VL: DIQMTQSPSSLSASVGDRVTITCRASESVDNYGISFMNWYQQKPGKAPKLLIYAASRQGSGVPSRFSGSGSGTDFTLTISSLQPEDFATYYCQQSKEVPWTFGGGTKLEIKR needs its kon filled in; supply it.
746000
